Test system: PBMC
experiment-summary: Inhibition of LPS-induced TNFalpha production in human PBMC preincubated 1 hr prior to LPS stimulation measured after 18 to 20 hrs by ELISA
Format: functional, cell-based
We label by threshold. Values of IC50 strictly beneath 90 nM are condition met. Values of 90 nM and up are condition not met.

Dear colleague, could you confirm whether IC50 of `C=C(c1cc(OC)cc(OC)c1)c1ccc(OC)c(O)c1` falls below 90 nM? Thanks.
condition not met

What about `COC=C(c1cc(OC)cc(OC)c1)c1ccc(OC)c(OC)c1` ?
condition not met

Then what about the compound `CCOc1cc(C(=CC#N)c2ccc(N(C)C)cc2)ccc1OC` ?
condition not met

Same again, this time with `CCOc1cc(C(=CC#N)c2ccc(OC)c(OC(=O)[C@@H](N)C(C)C)c2)ccc1OC.Cl`
condition met

What do you have for `CCOc1cc(C(=CC#N)c2ccc(OC)c(NC(=O)[C@H](C)N)c2)ccc1OC.Cl` ?
condition met

Next record, please: `COc1cc(C(=CC#N)c2cc(OC)c(OC)c(OC)c2)cc(OC)c1OC`
condition not met

`CCOc1cc(C(=CC#N)c2cc(OC)cc(OC)c2)ccc1OC` , same question.
condition met

Further, for `CCOc1cc(C(=CC#N)c2ccc(OC)c(OC)c2)ccc1OC` ?
condition not met

Would you kindly repeat that for `CCOc1cc(C(=CC#N)c2ccc(OC)c(N)c2)ccc1OC` ?
condition met

Consider next the compound `COc1cc(OC)cc(/C(=C\C#N)c2ccc(OC)c(OC)c2)c1` in the same way.
condition not met

Now try `CCOc1cc(C(=CC#N)c2ccc(OC)c(-n3cccc3)c2)ccc1OC` .
condition met

Same question, `CCOc1cc(C(=CC#N)c2ccc(OC)c(OC(=O)CN)c2)ccc1OC.Cl` this time
condition met

Try this compound too: `CC=C(c1cc(OC)cc(OC)c1)c1ccc(OC)c(OC)c1`
condition not met

What about `COc1ccc(C(=CC#N)c2cc(OC)c(OC)c(OC)c2)cc1N` ?
condition not met

Same question for `COc1ccc(C(=CC#N)c2ccc(OC)c(OC)c2)cc1OC` please.
condition not met

Try this compound too: `CCOc1cc(C(=CC#N)c2ccc(OC)c(C)c2)ccc1OC`
condition not met

Again, but for `CCOc1cc(C(=CC#N)c2ccc(OC)c(OC(=O)[C@H](C)N)c2)ccc1OC.Cl`
condition met

How about `COc1cc(OC)cc(C(=CC#N)c2ccccc2)c1` ?
condition not met

Follow-up entry: `CCOc1cc(C(=CC#N)c2ccc(OC)c(F)c2)ccc1OC`
condition met

* * *

assayed-system: Phosphodiesterase 4 (Homo sapiens, UniProt P27815+Q08499+Q07343+Q08493)
experiment-summary: Inhibition of human PDE4 expressed in U937 cells using [3H]cAMP as substrate after 30 mins
assay-setup: u-937
Give measured IC50 for each item. Keep answers brief.

Field request: IC50 | item: `COc1cccc(C(=CC#N)c2ccc(OC)c(OC)c2)c1`
160 nM

How about this compound: `CCOc1cc(C(=CC#N)c2cccc(OC)c2)ccc1OC`
110 nM

Next up: `CCOc1cc(C(=CC#N)c2ccc(OC)c(C)c2)ccc1OC`
82 nM

What about this compound? `CCOc1cc(C(=CC#N)c2ccc(OC)c(NC(=O)[C@H](C)N)c2)ccc1OC.Cl`
150 nM

Can you check `C=C(c1ccc(OC)c(O)c1)c1ccc(OC)c(OCC)c1` next?
380 nM

Request: `COC(=O)C=C(c1cc(OC)cc(OC)c1)c1ccc(OC)c(OC)c1`
1300 nM

Repeat with `COc1cc(OC)cc(C(=Cc2ccccc2)c2ccc(OC)c(O)c2)c1`
> 10000 nM

Again, but for `COc1ccc(C(=CC#N)c2cc(OC)c(OC)c(OC)c2)cc1N`
> 10000 nM

Same question for `COc1cc(OC)cc(C(=CC#N)c2ccccc2)c1` please.
1900 nM

Next compound: `CCOc1cc(C(=C(F)F)c2ccc(OC)c(O)c2)ccc1OC`
360 nM

Please answer likewise for `CCOc1cc(C(=CC#N)c2ccc(OC)c(OC(=O)[C@@H](N)C(C)C)c2)ccc1OC.Cl`
120 nM

Please give the result for `CCOc1cc(C(=CC#N)c2ccc(N(C)C)cc2)ccc1OC` too.
52 nM

Now consider `CCOc1cc(C(=CC#N)c2ccc(OC)c(NC(=O)CN)c2)ccc1OC.Cl` and answer again.
400 nM

Next: `COc1ccc(C(=CC#N)c2cc(OC)c(OC)c(OC)c2)cc1OC`
1800 nM

Do the same for `C=C(c1cc(OC)cc(OC)c1)c1ccc(OC)c(N)c1` please
> 10000 nM

Quick one: `COc1cccc(C(=CC#N)c2cc(OC)cc(OC)c2)c1`
3400 nM

And for `COc1cc(OC)cc(C(=CC(=O)O)c2ccc(OC)c(OC)c2)c1` ?
> 10000 nM

Again, but for `COc1cc(OC)cc(C(=CC(C)=O)c2ccc(OC)c(OC)c2)c1`
140 nM

Then this compound: `CCOc1cc(C(=CC#N)c2ccc(OC)c(O)c2)ccc1OC`
91 nM

Let us now turn to `COC=C(c1cc(OC)cc(OC)c1)c1ccc(OC)c(OC)c1`
3600 nM

Note, next up: `C=C(c1ccc(OC)c(N)c1)c1ccc(OC)c(OCC)c1`
680 nM

Another compound to look at: `C=C(c1cc(OC)cc(OC)c1)c1ccc(OC)c(OC)c1`
2200 nM

Let us now turn to `CCOc1cc(C(=CC#N)c2ccc(OC)c(OC(=O)N(C)C)c2)ccc1OC`
120 nM

Repeat with `COc1cc(OC)cc(/C(=C\C#N)c2ccc(OC)c(OC)c2)c1`
150 nM

Okay, and `COc1ccc(C(=CC#N)c2ccc(OC)c(OC)c2)cc1OC` ?
310 nM

Try the compound `C#CC=C(c1cc(OC)cc(OC)c1)c1ccc(OC)c(OC)c1`
3500 nM

Do the same for `COc1cc(OC)cc(/C(=C/C#N)c2ccc(OC)c(OC)c2)c1` please
730 nM

Let us now turn to `CC=C(c1cc(OC)cc(OC)c1)c1ccc(OC)c(OC)c1`
1500 nM

Entry `CCOc1cc(C(=CC#N)c2cc(OC)cc(OC)c2)ccc1OC` please
54 nM

Input `COc1ccc(C(=CC#N)c2cc(OC)cc(OC)c2)cc1`
3800 nM

Param item: `CCOc1cc(C(=CC#N)c2ccc(OC)c(-n3cccc3)c2)ccc1OC`
70 nM

Thanks! And `COc1cc(C(=CC#N)c2cc(OC)c(OC)c(OC)c2)cc(OC)c1OC` ?
2400 nM

Another compound to look at: `COc1cc(OC)cc(C(=CC#N)c2ccc(OC)c(NC(C)=O)c2)c1`
> 10000 nM

Subsequent entry: `C=C(c1cc(OC)cc(OC)c1)c1ccc(OC)c(O)c1`
> 10000 nM

Note, next up: `CC=C(c1cc(OC)cc(OC)c1)c1ccc(OC)c(O)c1`
> 10000 nM

Now try `CC=C(c1ccc(OC)c(N)c1)c1ccc(OC)c(OCC)c1` .
590 nM

Now try `COc1cc(OC)cc(C(=CC#N)c2ccc(OC)c(N)c2)c1` .
9800 nM

Moving on to the next compound: `CCOc1cc(C(=CC#N)c2ccc(OC)c(F)c2)ccc1OC`
70 nM

Now consider `CCOc1cc(C(=CC#N)c2ccc(OC)c(OC)c2)ccc1OC` and answer again.
83 nM

Quick one: `COc1cc(OC)cc(C(=CCCN(C)C)c2ccc(OC)c(OC)c2)c1`
> 10000 nM

Another: COc1ccc(/C=C\c2cc(OC)c(OC)c(OC)c2)cc1O [COMBRETASTATIN A4]
> 10000 nM

Also, `COc1ccc(C(=CC#N)c2ccc(OC)c(OC)c2)cc1` please.
190 nM

Another compound: `CCOc1cc(C(=CC#N)c2ccc(OC)c(OC(=O)[C@H](C)N)c2)ccc1OC.Cl`
69 nM

Next entry: `COc1cc(OC)cc(C(=CC#N)c2ccc(OC)c(O)c2)c1`
2400 nM

Try this compound next: `COc1cc(OC)cc(C(=CC#N)c2ccc(OC)c(OC)c2)c1`
350 nM

Follow-up item: `CCOc1cc(C(=CC#N)c2ccc(S(C)(=O)=O)cc2)ccc1OC`
200 nM

meta.source: ChEMBL document CHEMBL1914453
